Published pIC50 for Ubiquitin carboxyl-terminal hydrolase 7 (Homo sapiens), assembled from different documents, is shown next.
pIC50: −log10 of the molar value.

Write down the reported pIC50 of CN1CC2(CC(N3CCCc4cc(Cl)cc(-c5ccnc6cc(CN7C(=O)CCC7=O)sc56)c43)C2)C1 , test system: Ubiquitin carboxyl-terminal hydrolase 7 (Homo sapiens).
7.00 to 8.00

Can you check Cn1nc2c(c1[C@H]1Cc3cc(Cl)cc(-c4ncnc5cc(CO)sc45)c3O1)CNCC2 next?
> 6.00

Can you check CC(C)(O)[C@H]1C[C@H](N2CCCc3cc(Cl)cc(-c4ccnc5cc(CN6C(=O)CCC6=O)sc45)c32)CN1 next?
> 8.00

Can you check CC1(C)CC(N2CCCc3cc(C#N)cc(-c4ccnc5cc(Cn6ncc(C(C)(C)C)cc6=O)sc45)c32)CN1 (stereo in doubt) next?
> 8.00

Can you check C[C@H]1CNC[C@H](C)N1Cc1c(Cl)cc(Cl)cc1-c1ncnc2cc(CN3C(=O)C4CC4C3=O)sc12 (stereo partly shown) next?
> 8.00

Can you check Cn1nc2c(c1[C@H]1Cc3cc(Cl)cc(-c4ncnc5ccoc45)c3O1)CNCC2 next?
> 6.00

Can you check Cn1ccc(=O)n(Cc2cc3nccc(-c4cc(Cl)cc5c4N([C@H]4CCNC4)CCC5)c3s2)c1=O next?
> 8.00

====

Published pIC50 for Ubiquitin carboxyl-terminal hydrolase 7 (Homo sapiens), assembled from different documents, is shown next.
pIC50: −log10 of the molar value.

Given the compound CN(C)C(=O)CCc1cc2nccc(-c3cc(Cl)cc4c3O[C@@H](C(=O)N3CCNCC3)C4)c2s1 , what is its reported pIC50?
5.00 to 6.00

Can you check Cc1cc(Cl)cc(-c2ncnc3cc(CN4C(=O)C5CC5C4=O)sc23)c1C[C@H]1CN(C(=O)C(F)(F)F)CCO1 (some centres unmarked) next?
< 7.00

Can you check O=C(CCc1ccc(F)cc1)N1CCC(O)(Cn2cnc3cc(Cl)ccc3c2=O)CC1 next?
6.00 to 6.70

Can you check CCCCc1nnc2nc3c(nn12)C(=O)c1ccccc1-3 next?
4.64

Can you check O=C(C1Cc2cc(Cl)cc(-c3ccnc4[nH]ccc34)c2O1)N1CCN([C@H]2CC[C@H](c3ccccc3)CC2)CC1 (some centres unmarked) next?
5.00 to 6.00

Can you check Cc1cc(Cl)cc(-c2ccnc3cc(CN4C(=O)C5CC5C4=O)sc23)c1CC1CNCC2(COC2)O1 (centres unmarked) next?
> 8.00

Can you check Cc1cnn(Cc2cc3nccc(-c4cc(C#N)cc5c4N([C@@H]4CNC(C)(C)C4)CCO5)c3s2)c(=O)c1 next?
> 8.00

Can you check COCCOCCOCc1nnc2nc3c(nn12)C(=O)c1ccccc1-3 next?
5.92

Can you check Cc1cc(Cl)cc(-c2ncnc3cc(Cn4c(=O)ccn(C)c4=O)sc23)c1CC1CNCC(C)(C)O1 (centres unmarked) next?
> 8.00

Can you check CC(CC(=O)N1CCC(O)(Cn2cnc3cc(Cl)ccc3c2=O)CC1)c1ccccc1 (centres unmarked) next?
> 6.70

Can you check Clc1cc2c(c(-c3ccnc4[nH]ccc34)c1)OC(c1n[nH]c3c1CNCC3)C2 (centres unmarked) next?
5.00 to 6.00

Can you check Cc1cc(Cl)cc(-c2ccnc3cc(CN4C(=O)CCC4=O)sc23)c1CN1CCCNCC1 next?
> 8.00

Can you check CC1CCC(=O)N1Cc1cc2nccc(-c3cc(Cl)cc4c3O[C@@H](C(=O)N3CCNCC3)C4)c2s1 (some centres unmarked) next?
> 6.00

Can you check Cn1nc([C@H]2Cc3cc(Cl)cc(-c4ccnc5ccsc45)c3O2)c2c1CCNC2 next?
5.00 to 6.00

Can you check O=C1CCC(=O)N1Cc1cc2nccc(-c3cc(Cl)cc4c3N(C3CNC3)C(=O)CO4)c2s1 next?
7.00 to 8.00

Can you check COCCc1cnn(Cc2cc3nccc(-c4cc(Cl)cc5c4N([C@H]4CCNC4)CCC5)c3s2)c(=O)c1 next?
> 8.00

Can you check CC[C@@H](O)c1cc2nccc(-c3cc(Cl)cc4c3O[C@@H](C(=O)N3CCNCC3)C4)c2s1 next?
> 6.00

====

pIC50: −log10 of the molar value.
Published pIC50 for Ubiquitin carboxyl-terminal hydrolase 7 (Homo sapiens), assembled from different documents, is shown next.

Given the compound Cc1cc(Cl)cc(-c2ccnc3cc(CN4C(=O)C5C(C4=O)C5(C)C)sc23)c1CN1CCNC[C@@H]1C (some centres unmarked) , what is its reported pIC50?
> 8.00

Can you check N#CN1Cc2cnn(-c3cnc4ccccc4c3)c2C1 next?
> 5.00

Can you check Cn1nc(-c2ccccc2)c2c1CN(C#N)C2 next?
> 5.00

Can you check Cc1cc(Cl)cc(-c2ccnc3cc(CN4C(=O)C5C(C4=O)C5(C)C)sc23)c1CC1CNCC(C)(C)O1 (centres unmarked) next?
> 8.00

Can you check O=C(NCCCC(=O)N1CCC(Cn2cnc3cc(Cl)ccc3c2=O)CC1)c1ccc2c(Cl)c3c(nc2c1)CCCC3 next?
< 5.00

Can you check Cc1cc(Cl)cc(-c2ccnc3cc(CN4C(=O)CCC4C(F)(F)F)sc23)c1CC1CNCCO1 (centres unmarked) next?
7.00 to 8.00

Can you check N#CN1Cc2[nH]nc(-c3cc(OC(F)(F)F)ccc3Cl)c2C1 next?
> 5.00

Can you check O=C(C1Cc2cc(Cl)cc(-c3ccnc4[nH]ccc34)c2O1)N1CCC(O)(c2ccc(F)cc2Cl)CC1 (centres unmarked) next?
5.00 to 6.00

Can you check N#CN1Cc2[nH]nc(-c3cccc(OC(F)(F)F)c3)c2C1 next?
4.52 to 5.00

Can you check Cc1cc(Cl)cc(-c2ncnc3cc(Cn4c(=O)ccn(C5CCC5)c4=O)sc23)c1CC1CNCCO1 (centres unmarked) next?
> 8.00

Can you check O=C(C1Cc2cc(Cl)cc(-c3ccnc4[nH]c(Cc5ccccc5)cc34)c2O1)N1CCNCC1 (centres unmarked) next?
5.00 to 6.00

Can you check N#CN1Cc2[nH]nc(-c3ccnn3Cc3ccccc3)c2C1 next?
4.52 to 5.00

Can you check CN(C)C1CCN(C(=O)C2Cc3cc(Cl)cc(-c4ccnc5[nH]ccc45)c3O2)CC1 (centres unmarked) next?
5.00 to 6.00

Can you check CC1(C)CNCC(Cc2c(Cl)cc(Cl)cc2-c2ccnc3cc(CN4C(=O)CCC4=O)sc23)O1 (centres unmarked) next?
> 8.00

Can you check CCN(CC(=O)N1CCC(O)(Cn2cnc3cc(Cl)ccc3c2=O)CC1)c1ccccc1 next?
< 5.00

Can you check Cc1cc(Cl)cc(-c2ncnc3cc(CN4C(=O)C5CC5C4=O)sc23)c1CN1[C@@H](C)CNC[C@@H]1C (some centres unmarked) next?
> 8.00

Can you check CCC(O)(C(=O)N(C)C)c1cc2nccc(-c3cc(Cl)cc4c3O[C@@H](C(=O)N3CCNCC3)C4)c2s1 (some centres unmarked) next?
> 6.00

====

Published pIC50 for Ubiquitin carboxyl-terminal hydrolase 7 (Homo sapiens), assembled from different documents, is shown next.
pIC50: −log10 of the molar value.

Given the molecule Cc1cc(Cl)cc(-c2ncnc3cc(CN4C(=O)[C@@H]5CCCN5C4=O)sc23)c1CN1[C@@H](C)CNC[C@@H]1C , what is its reported pIC50?
> 8.00

Can you check O=C1CCC(=O)N1Cc1cc2ncc(F)c(-c3cc(Cl)cc4c3N([C@H]3CCNC3)CCC4)c2s1 next?
> 8.00

Can you check CC1(C)C[C@H](N2CCCc3cc(C#N)cc(-c4ccnc5cc(Cn6ncc(C7CC7)cc6=O)sc45)c32)CN1 next?
> 8.00

Can you check O=C([C@H]1Cc2cc(Cl)cc(-c3ccnc4cc(CN5C(=O)COC5=O)sc34)c2O1)N1CCNCC1 next?
> 6.00

Can you check O=C(CCc1ccc(F)cc1)N1CCC(O)(Cn2cnc3cc(Cl)ccc3c2=O)C1 (stereo not shown) next?
< 5.00

Can you check C[C@]1(CO)C[C@H](N2CCCc3cc(Cl)cc(-c4ccnc5cc(Cn6ncc(C7(C(F)(F)F)CC7)cc6=O)sc45)c32)CN1 next?
> 8.00

Can you check Clc1cc2c(c(-c3ccnc4ccsc34)c1)O[C@@H](c1[nH]nc3c1CNCC3)C2 next?
> 6.00

====

Published IC50 for Ubiquitin carboxyl-terminal hydrolase 7 (Homo sapiens, UniProt Q93009), assembled from different documents, is shown next.

Write down the reported IC50 of Cc1cc(Cl)cc(-c2ncnc3cc(Cn4c(=O)cc[nH]c4=O)sc23)c1C[C@@H]1CNCC(C)(C)O1 , test system: Ubiquitin carboxyl-terminal hydrolase 7 (Homo sapiens, UniProt Q93009).
10 to 100 nM

Can you check CC(=O)NCc1cc2nccc(-c3cc(Cl)cc4c3O[C@@H](c3c5c(nn3C)CCNC5)C4)c2s1 next?
< 1000 nM

Can you check O=C(C#Cc1ccccc1)N1CCC(O)(Cn2cnc3cc(Cl)ccc3c2=O)CC1 next?
> 10000 nM

Can you check N#CN1Cc2[nH]nc(-c3cccc(F)c3)c2C1 next?
< 10000 nM

Can you check O=C(NCC(=O)N1CCC(O)(Cn2cnc3cc(Cl)ccc3c2=O)CC1)c1ccc2c(Cl)c3c(nc2c1)CCCC3 next?
> 10000 nM

Can you check Cc1cc(Cl)cc(-c2ccnc3cc(CN4C(=O)CCC4=O)sc23)c1CN1[C@H](C)CNC[C@@H]1C next?
< 10 nM

Can you check Cc1cc(Cl)cc(-c2ccnc3cc(CN4C(=O)C5C(C4=O)C5(C)C)sc23)c1CN1C[C@@H](C)NC[C@@H]1C (stereo partly shown) next?
< 10 nM

Can you check Cc1cc(Cl)cc(-c2ncnc3cc(CN4C(=O)CC[C@@H]4C(=O)O)sc23)c1C[C@@H]1CNCC(C)(C)O1 next?
> 100 nM

Can you check Cc1cc(Cl)cc(-c2ncnc3cc(Cn4c(C#N)cccc4=O)sc23)c1C[C@@H]1CNCC(C)(C)O1 next?
> 100 nM

Can you check Cc1cc(Cl)cc(-c2ccnc3cc(CN4C(=O)CCCC4=O)sc23)c1CN1C[C@@H](C)NC[C@@H]1C next?
< 10 nM

Can you check C[C@H](O)c1cc2c(-c3cc(Cl)cc4c3OC(C(=O)N3CCNCC3)C4)ccnc2[nH]1 (stereo partly shown) next?
1000 to 10000 nM

Can you check N#Cc1cc2c(c(-c3ccnc4cc(Cn5c(=O)ccn(CC(F)(F)F)c5=O)sc34)c1)N([C@H]1CCNC1)CCC2 next?
< 10 nM

Can you check O=C([C@H]1Cc2cc(Cl)cc(-c3ccnc4cc(CO)sc34)c2O1)N1CCC(N2CCCC2)CC1 next?
< 1000 nM

Can you check C[C@H](CC(=O)N1CCC(O)(Cn2cnc3cc(NC(=O)CCN4CCOCC4)ccc3c2=O)CC1)c1ccccc1 next?
< 200 nM

Can you check O=C(C1Cc2cc(Cl)cc(-c3ccnc4ccccc34)c2O1)N1CCNCC1 (stereo not shown) next?
1000 to 10000 nM

Can you check Cc1cc(Cl)cc(-c2ncnc3cc(CN4C(=O)C5CC5C4=O)sc23)c1CC1CNCC(C)(C)O1 (stereo not shown) next?
< 10 nM
